experiment: Pharmacokinetics in mice
Format: in vivo
reported.conditions: mouse, plasma, po, 10 mg/kg
recorded.endpoint: Cmax
Remember to follow the number with its unit.

Problem: Entry under review: COc1ncc(-c2ccc3ncn(-c4ccc(OCCO)cc4)c3c2)cc1NS(=O)(=O)c1ccc(F)cc1F [DHW-221] . Reported Cmax?
Solution: 11800 ng/mL

---

Test system: HCC827
experiment: SRB assay HCC827
Format: cell-based
reported.conditions: Homo sapiens, 72h, mean±SD, n=3, read-out: IC50 HCC827 72h
recorded.endpoint: pIC50
One number for each entry, as −log10 of the molar value.

Problem: Entry under review: COc1ncc(-c2ccc3ncn(-c4ccc(OCCO)cc4)c3c2)cc1NS(=O)(=O)c1ccc(F)cc1F [DHW-221] . Reported pIC50?
Solution: 7.49

---

Tested on: NCI-H292
experiment: SRB assay NCI-H292
Assay type: cell-based
reported.conditions: Homo sapiens, 48h, mean±SD, n=3, read-out: IC50 NCI-H292 48h
recorded.endpoint: IC50
Remember to follow the number with its unit.

Problem: Entry under review: "COc1ncc(-c2ccc3ncn(-c4ccc(OCCO)cc4)c3c2)cc1NS(=O)(=O)c1ccc(F)cc1F" . Reported IC50?
Solution: 253 nM

---

experiment: Pharmacokinetics in mice
Format: in vivo
reported.conditions: mouse, plasma, po, 10 mg/kg
recorded.endpoint: Tmax (h)
One number for each entry, in h.

Problem: Entry under review: "COc1ncc(-c2ccc3ncn(-c4ccc(OCCO)cc4)c3c2)cc1NS(=O)(=O)c1ccc(F)cc1F" . Reported Tmax?
Solution: 3

---

experiment: Pharmacokinetics in mice
Assay type: in vivo
reported.conditions: mouse, plasma, iv, 10 mg/kg
recorded.endpoint: AUC (µg·h/mL)
Give bare numbers, in µg·h/mL.

Problem: Entry under review: "COc1ncc(-c2ccc3ncn(-c4ccc(OCCO)cc4)c3c2)cc1NS(=O)(=O)c1ccc(F)cc1F" . Reported AUC?
Solution: 262
